Known FP signal (raw) of a selection of compounds
Target: Hsp90 in C. albicans (SC5314) lysate (Candida albicans)
Construct: endogenous in cells; host or cells: C. albicans SC5314 whole-cell lysate
Sequence (P46598 whole entry): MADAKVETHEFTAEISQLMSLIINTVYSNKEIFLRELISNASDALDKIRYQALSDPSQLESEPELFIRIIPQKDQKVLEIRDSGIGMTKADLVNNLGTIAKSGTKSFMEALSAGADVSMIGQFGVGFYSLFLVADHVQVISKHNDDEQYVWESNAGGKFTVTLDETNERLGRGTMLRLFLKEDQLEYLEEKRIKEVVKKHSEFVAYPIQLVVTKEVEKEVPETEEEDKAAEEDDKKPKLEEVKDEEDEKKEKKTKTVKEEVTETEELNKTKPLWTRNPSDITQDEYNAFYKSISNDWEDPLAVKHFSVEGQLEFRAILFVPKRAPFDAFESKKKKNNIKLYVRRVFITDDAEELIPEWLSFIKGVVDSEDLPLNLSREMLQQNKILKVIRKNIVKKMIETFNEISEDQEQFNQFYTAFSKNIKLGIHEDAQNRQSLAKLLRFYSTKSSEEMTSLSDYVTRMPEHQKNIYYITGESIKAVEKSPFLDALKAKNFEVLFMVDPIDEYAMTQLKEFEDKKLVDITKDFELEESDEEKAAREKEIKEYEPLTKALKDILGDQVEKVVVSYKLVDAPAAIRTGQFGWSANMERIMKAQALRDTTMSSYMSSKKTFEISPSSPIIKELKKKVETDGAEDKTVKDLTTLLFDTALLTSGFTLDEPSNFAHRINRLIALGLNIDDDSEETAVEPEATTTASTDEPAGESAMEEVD
Test: biochemical
Assay type: binding
Conditions: SC5314 lysate, 12.346 nM
Reply with just the number.

Solved entries:
| compound | numericResult |
| --- | --- |
| Cc1ccc(CON=C2C=CC=CC3OC3CC(C)OC(=O)c3c(O)cc(O)c(Cl)c3C2)cc1 (mixture of isomers) | 199 |
| CCON=C1/C=C/C=C\[C@H]2O[C@H]2C[C@@H](C)OC(=O)c2c(O)cc(O)c(Cl)c2C1 | 81 |
| CC1(C)CC(=O)c2c(C(F)(F)F)nn(-c3ccc(C(N)=O)c(N[C@H]4CC[C@H](OC(=O)CN)CC4)c3)c2C1 | 118 |
| COc1ccc(CON=C2C=CC=CC3OC3CC(C)OC(=O)c3c(O)cc(O)cc3C2)cc1 (stereo not shown) | 199 |
| CC1CC2OC2C=CC=CC(=NOCc2cccc(F)c2)Cc2c(Cl)c(O)cc(O)c2C(=O)O1 (mixture of isomers) | 193 |

Using the record for CC1CC2OC2C=CC=CC(=NOCc2ccccc2)Cc2c(Cl)c(O)cc(O)c2C(=O)O1 (mixture of isomers) , state its measured FP signal (raw).
197

Supply FP signal (raw) value. Item: `C[C@@H]1C[C@@H]2O[C@@H]2/C=C\C=C\C(=NOCc2ccccc2Cl)Cc2c(Cl)c(O)cc(O)c2C(=O)O1`
202

Numbers sourced from paper PMC6345968.
